Test system: NCI-H1975
Assay: Antiproliferative activity against human NCI-H1975 cells harboring EGFR T790M/L858R double mutant assessed as inhibition of cell viability at 10 uM measured after 72 hrs by MTT assay
Assay type: functional
Measured Quantity: inhibition at 10 µM (%)
// note: answer is a bare numeric in %

Illustrative cases are given below, each with its answer.
C=CC(=O)Nc1cccc(Oc2nc(Nc3cccc(OC)c3)nc3ccsc23)c1 : 86.8
C=CC(=O)Nc1cccc(Oc2nc(Nc3cccc(C#N)c3)nc3ccsc23)c1 : 79.5
CCC/C=C/C(=O)Nc1cccc(Oc2nc(Nc3cccc(OC)c3)nc3ccsc23)c1 : 14.6

**Query** Output measured inhibition at 10 µM for this item: CCC/C=C/C(=O)Nc1cccc(Oc2nc(Nc3ccc(OC)cc3)nc3ccsc23)c1
**Result** 94.3

**Query** // fetch inhibition at 10 µM given entry C=CC(=O)Nc1cccc(Oc2nc(Nc3ccc(OC)cc3)nc3ccsc23)c1
**Result** 83.8

**Query** Give the value of inhibition at 10 µM reported for the following: C=CC(=O)Nc1cccc(Oc2nc(Nc3ccc(N4CCN(C)CC4)cc3)nc3ccsc23)c1
**Result** 74.6

###

Species: Homo sapiens
Assay: Inhibition of EGFR T790M mutant (unknown origin) using FAM-labelled peptide as substrate at 1 uM incubated for 10 mins in presence of ATP measured by mobility shift assay
# reported inhibition; entries follow
Only the number, expressed in %, is required.

CCC/C=C/C(=O)Nc1cccc(Oc2nc(Nc3cccc(OC)c3)nc3ccsc23)c1 : 24.5
C=CC(=O)Nc1cccc(Oc2nc(Nc3ccc(N4CCN(C)CC4)cc3)nc3ccsc23)c1 [OLMUTINIB] : 98.1
C=CC(=O)Nc1cccc(Oc2nc(Nc3cccc(OC)c3)nc3ccsc23)c1 : 94.8
C=CC(=O)Nc1cccc(Oc2nc(Nc3cccc(C#N)c3)nc3ccsc23)c1 : 95.9

Now look at this entry.
**Query** # return recorded inhibition for input CCC/C=C/C(=O)Nc1cccc(Oc2nc(Nc3ccc(OC)cc3)nc3ccsc23)c1
**Result** 21.7

###

Assay: Inhibition of EGFR T790M/L858R double mutant (unknown origin) using FAM-labelled peptide as substrate incubated for 10 mins in presence of ATP measured by mobility shift assay
Parameters: species or system Homo sapiens
Measured Quantity: pIC50
Entry type: numeric. Quantity: pIC50, the -log10 of concentration in molar units.

Study these solved cases before continuing.
C=CC(=O)Nc1cccc(Oc2nc(Nc3ccc(N4CCN(C)CC4)cc3)nc3ccsc23)c1 [OLMUTINIB] : 7.90
C=CC(=O)Nc1cccc(Oc2nc(Nc3cccc(C#N)c3)nc3ccsc23)c1 : 7.87

**Query** Determine its reported pIC50: C=CC(=O)Nc1cccc(Oc2nc(Nc3cccc(OC)c3)nc3ccsc23)c1
**Result** 7.82

###

Listed molecules paired with reported inhibition
Target: Epidermal growth factor receptor (Homo sapiens, UniProt P00533)
Sequence (P00533 whole entry): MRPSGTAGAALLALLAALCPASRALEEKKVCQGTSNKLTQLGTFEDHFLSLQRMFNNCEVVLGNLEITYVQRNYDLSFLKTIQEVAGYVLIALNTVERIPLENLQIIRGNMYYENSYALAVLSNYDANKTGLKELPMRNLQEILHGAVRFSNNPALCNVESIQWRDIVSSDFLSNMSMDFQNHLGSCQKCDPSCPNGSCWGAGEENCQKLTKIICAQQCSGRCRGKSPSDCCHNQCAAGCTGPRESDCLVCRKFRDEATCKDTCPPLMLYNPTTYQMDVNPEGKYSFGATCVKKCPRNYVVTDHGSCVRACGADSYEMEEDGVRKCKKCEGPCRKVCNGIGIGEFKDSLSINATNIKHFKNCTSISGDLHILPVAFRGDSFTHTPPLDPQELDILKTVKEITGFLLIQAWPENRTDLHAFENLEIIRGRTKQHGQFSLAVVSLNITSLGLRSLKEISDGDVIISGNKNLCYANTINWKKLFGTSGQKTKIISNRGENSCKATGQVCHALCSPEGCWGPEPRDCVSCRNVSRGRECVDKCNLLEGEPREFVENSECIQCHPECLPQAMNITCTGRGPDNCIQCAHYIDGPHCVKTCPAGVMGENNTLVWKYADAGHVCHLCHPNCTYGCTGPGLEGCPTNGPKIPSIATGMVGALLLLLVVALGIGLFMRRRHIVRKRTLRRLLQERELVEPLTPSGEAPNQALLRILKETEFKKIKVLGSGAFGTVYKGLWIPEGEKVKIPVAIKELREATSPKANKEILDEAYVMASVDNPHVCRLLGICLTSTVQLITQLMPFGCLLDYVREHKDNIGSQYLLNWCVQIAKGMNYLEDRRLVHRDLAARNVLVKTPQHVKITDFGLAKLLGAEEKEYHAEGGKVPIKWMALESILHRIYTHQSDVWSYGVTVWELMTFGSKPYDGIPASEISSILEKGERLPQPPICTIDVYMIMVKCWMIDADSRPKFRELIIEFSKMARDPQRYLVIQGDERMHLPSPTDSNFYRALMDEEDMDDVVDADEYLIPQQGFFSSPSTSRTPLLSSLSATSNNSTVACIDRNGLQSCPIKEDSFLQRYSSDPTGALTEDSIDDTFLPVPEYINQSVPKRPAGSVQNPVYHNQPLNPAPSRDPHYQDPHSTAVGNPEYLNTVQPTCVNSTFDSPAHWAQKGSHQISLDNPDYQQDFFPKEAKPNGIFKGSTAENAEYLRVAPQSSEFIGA
Experiment: Inhibition of wild type EGFR (unknown origin) using FAM-labelled peptide as substrate at 1 uM incubated for 10 mins in presence of ATP measured by mobility shift assay
I only need the number, in %, no unit after it.

Sample records with inhibition:
CCC/C=C/C(=O)Nc1cccc(Oc2nc(Nc3ccc(OC)cc3)nc3ccsc23)c1 : 7.4
C=CC(=O)Nc1cccc(Oc2nc(Nc3cccc(C#N)c3)nc3ccsc23)c1 : 23.5
CCC/C=C/C(=O)Nc1cccc(Oc2nc(Nc3cccc(OC)c3)nc3ccsc23)c1 : 4

Would you kindly look at the next entry?
**Query** Quote inhibition reported for C=CC(=O)Nc1cccc(Oc2nc(Nc3cccc(OC)c3)nc3ccsc23)c1 please.
**Result** 24

###

Target: Epidermal growth factor receptor (Homo sapiens)
Measured Quantity: IC50

CCC/C=C/C(=O)Nc1cccc(Oc2nc(Nc3ccc(OC)cc3)nc3ccsc23)c1 : > 1000 nM

Shifting focus to the compound that follows.
**Query** For Epidermal growth factor receptor (Homo sapiens), give the measured IC50 of the entry C=CC(=O)Nc1cccc(Oc2nc(Nc3cccc(OC)c3)nc3ccsc23)c1
**Result** > 1000 nM

###

The molecules listed here are annotated with their pIC50.
Tested on: NCI-H1975
Assay: Antiproliferative activity against human NCI-H1975 cells harboring EGFR T790M/L858R double mutant assessed as inhibition of cell viability measured after 72 hrs by MTT assay
Format: functional, cell-based
Conditions: NCI-H1975, 72 h
Give only the number. pIC50 is defined as minus log10 of concentration in molar units.

C=CC(=O)Nc1cccc(Oc2nc(Nc3ccc(N4CCN(C)CC4)cc3)nc3ccsc23)c1 : 6.28
C=CC(=O)Nc1cccc(Oc2nc(Nc3cccc(OC)c3)nc3ccsc23)c1 : 6.38
C=CC(=O)Nc1cccc(Oc2nc(Nc3cccc(C#N)c3)nc3ccsc23)c1 : 6.16
CCC/C=C/C(=O)Nc1cccc(Oc2nc(Nc3ccc(OC)cc3)nc3ccsc23)c1 : 5.67

Query molecule follows.
**Query** GET pIC50 | system: NCI-H1975 | item: C=CC(=O)Nc1cccc(Oc2nc(Nc3ccc(OC)cc3)nc3ccsc23)c1
**Result** 6.68
